systemUnderTest: Muscarinic acetylcholine receptor M4 (Rattus norvegicus, UniProt P08485)
Sequence (P08485 whole entry): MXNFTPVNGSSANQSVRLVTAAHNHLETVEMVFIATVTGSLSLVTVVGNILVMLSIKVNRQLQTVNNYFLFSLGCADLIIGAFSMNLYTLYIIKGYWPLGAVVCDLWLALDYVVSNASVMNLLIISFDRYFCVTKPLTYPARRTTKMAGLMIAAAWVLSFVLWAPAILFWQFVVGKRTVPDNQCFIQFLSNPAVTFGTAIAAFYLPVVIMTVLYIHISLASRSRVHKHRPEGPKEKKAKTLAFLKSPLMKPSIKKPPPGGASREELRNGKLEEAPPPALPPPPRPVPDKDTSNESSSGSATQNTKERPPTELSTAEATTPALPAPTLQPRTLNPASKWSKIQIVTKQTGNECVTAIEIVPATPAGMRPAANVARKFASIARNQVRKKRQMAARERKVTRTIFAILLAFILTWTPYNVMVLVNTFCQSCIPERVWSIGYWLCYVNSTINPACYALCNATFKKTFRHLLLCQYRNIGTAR
protocolDescription: Agonist activity at rat muscarinic M4 expressed in CHO cells assessed as stimulation of calcium mobilization
# EC50 annotations
propertyName: EC50

1. O=C1C(=O)N(Cc2ccc(C(F)(F)F)cc2)c2c(Cl)cccc21 :: > 10 µM
2. COc1ccc(CN2C(=O)C(=O)c3cc(OC(F)(F)F)ccc32)cc1 :: > 30 µM
3. O=C1C(=O)N(Cc2ccc(Br)cc2)c2ccccc21 :: > 30 µM

---

# EC50 annotations
systemUnderTest: Muscarinic acetylcholine receptor M5 (Homo sapiens, UniProt P08912)
Sequence (P08912 whole entry): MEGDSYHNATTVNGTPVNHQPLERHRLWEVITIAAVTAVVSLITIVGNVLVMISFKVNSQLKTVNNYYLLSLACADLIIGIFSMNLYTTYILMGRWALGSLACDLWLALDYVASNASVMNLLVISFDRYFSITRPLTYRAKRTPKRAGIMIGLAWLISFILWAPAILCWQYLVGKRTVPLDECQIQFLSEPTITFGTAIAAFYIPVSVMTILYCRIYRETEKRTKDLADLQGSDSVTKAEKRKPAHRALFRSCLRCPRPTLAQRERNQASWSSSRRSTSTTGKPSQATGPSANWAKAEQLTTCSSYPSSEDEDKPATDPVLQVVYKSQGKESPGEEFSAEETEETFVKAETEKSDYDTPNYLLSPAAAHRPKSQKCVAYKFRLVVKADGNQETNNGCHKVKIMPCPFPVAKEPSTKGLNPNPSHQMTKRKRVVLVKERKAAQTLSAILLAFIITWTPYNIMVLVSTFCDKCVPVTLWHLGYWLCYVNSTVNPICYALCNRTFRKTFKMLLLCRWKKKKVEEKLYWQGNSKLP
protocolDescription: Agonist activity at human muscarinic M5 expressed in CHO cells assessed as stimulation of calcium mobilization
propertyName: EC50 (µM)

1) O=C1C(=O)N(Cc2ccc(-c3ccsc3)cc2)c2ccc(OC(F)(F)F)cc21 :: 2.8
2) COc1ccc(CN2C(=O)C(=O)c3cc(OC(F)(F)F)ccc32)cc1 :: 1.1
3) O=C1C(=O)N(Cc2ccc(-c3ccccc3)cc2)c2cc(OC(F)(F)F)ccc21 :: 2.7
4) O=C1C(=O)N(Cc2ccc(-c3ccccc3)cc2)c2ccc(OC(F)(F)F)cc21 :: 2.7
5) COc1ccccc1-c1ccc(CN2C(=O)C(=O)c3cc(OC(F)(F)F)ccc32)cc1 :: 3.9
6) O=C1C(=O)N(Cc2ccc(Oc3ccccc3)cc2)c2ccc(OC(F)(F)F)cc21 :: 1.9
7) Cn1cc(-c2ccc(CN3C(=O)C(=O)c4cc(OC(F)(F)F)ccc43)cc2)cn1 :: 3.3
8) O=C1C(=O)N(Cc2ccc(-c3ccc(Cl)nc3)cc2)c2ccc(OC(F)(F)F)cc21 :: 4.8
9) O=C1C(=O)N(Cc2ccc(-c3ccc(F)nc3)cc2)c2ccc(OC(F)(F)F)cc21 :: 3.6
10) COc1ccc(CN2C(=O)C(=O)c3ccc(OC(F)(F)F)cc32)cc1 :: 5.7
